Molecular target: T1, GST-ZO-1 PDZ domain 1 (Rattus norvegicus (Rat)), A0A0G2
T1 chain: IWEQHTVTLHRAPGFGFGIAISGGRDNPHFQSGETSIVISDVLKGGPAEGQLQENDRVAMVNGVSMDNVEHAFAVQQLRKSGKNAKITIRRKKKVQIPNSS
Experiment: G assay titration, PDZ 1 ug/ml
reportedProperty: pKd
The value called pKd is obtained by taking minus log10 of the concentration in mol/L.

QUERY: Query (binder): TREDIYVNYPTFSRRPKTRV (modifications not checked) [DNAM-1] ; field requested: pKd
RESULT: 5.30

Reference source: patent US20050282743A1
